test_description: Drug concentration at steady state in human at 80 to 600 mg, po QD after 24 hrs
Type: ADME, organism-based
condition_context: in vivo, read-out: Css
readout_kind: concentration at 24 h (µM)
The reply should contain only the number, in µM.

Q: Reported concentration at 24 h, molecule COc1ccc(/C=C/C(=O)Nc2ccccc2C(=O)O)cc1OC : ____
Ans: 11.8

---

tested_target: ATP-binding cassette sub-family C member 4 (Homo sapiens)
test_description: Inhibition of human MRP4 overexpressed in Sf9 cell membrane vesicles assessed as uptake of [3H]-estradiol-17beta-D-glucuronide in presence of ATP and GSH measured after 20 mins by membrane vesicle transport assay
Assay type: ADME, cell-based
readout_kind: IC50

Sample answers from the record:
{"compound": "O=c1[nH]c(=O)n([C@H]2CCCO2)cc1F", "experimental_value": "> 133 µM"}
{"compound": "Cc1ccc(C(=O)Nc2ccc(S(=O)(=O)O)c3cc(S(=O)(=O)O)cc(S(=O)(=O)O)c23)cc1NC(=O)c1cccc(NC(=O)Nc2cccc(C(=O)Nc3cc(C(=O)Nc4ccc(S(=O)(=O)O)c5cc(S(=O)(=O)O)cc(S(=O)(=O)O)c45)ccc3C)c2)c1 [SURAMIN]", "experimental_value": "> 133 µM"}
{"compound": "CC(C)NCC(O)c1ccc(NS(C)(=O)=O)cc1 (configuration not stated) [SOTALOL]", "experimental_value": "> 133 µM"}
{"compound": "CC(O)(P(=O)(O)O)P(=O)(O)O [ETIDRONATE DISODIUM]", "experimental_value": "> 133 µM"}
{"compound": "Nc1nc2c(c(=O)[nH]1)N(C=O)C(CNc1ccc(C(=O)N[C@@H](CCC(=O)O)C(=O)O)cc1)CN2 (some centres not stated) [LEUCOVORIN CALCIUM]", "experimental_value": "> 133 µM"}
{"compound": "CC(=O)Oc1ccccc1C(=O)O [ASPIRIN]", "experimental_value": "> 133 µM"}

Q: Reported IC50, compound Cc1cccc(C)c1OCC(C)N (configuration not stated) [MEXILETINE] : ____
Ans: > 133 µM

Q: Reported IC50, compound O=C(NCCN1CCOCC1)c1ccc(Cl)cc1 [MOCLOBEMIDE] : ____
Ans: > 133 µM

---

test_description: Drug concentration at steady state in human at 125 to 500 mg, po QID after 6 hrs
Type: ADME, organism-based
condition_context: in vivo, read-out: Css
readout_kind: concentration at 6 h (µM)
The reply should contain only the number, in µM.

Q: Reported concentration at 6 h, molecule Cc1onc(-c2c(Cl)cccc2Cl)c1C(=O)N[C@@H]1C(=O)N2[C@@H]1SC(C)(C)[C@@H]2C(=O)O : ____
Ans: 28.1

---

tested_target: ATP-binding cassette sub-family C member 3 (Homo sapiens, UniProt O15438)
Sequence (O15438 whole entry): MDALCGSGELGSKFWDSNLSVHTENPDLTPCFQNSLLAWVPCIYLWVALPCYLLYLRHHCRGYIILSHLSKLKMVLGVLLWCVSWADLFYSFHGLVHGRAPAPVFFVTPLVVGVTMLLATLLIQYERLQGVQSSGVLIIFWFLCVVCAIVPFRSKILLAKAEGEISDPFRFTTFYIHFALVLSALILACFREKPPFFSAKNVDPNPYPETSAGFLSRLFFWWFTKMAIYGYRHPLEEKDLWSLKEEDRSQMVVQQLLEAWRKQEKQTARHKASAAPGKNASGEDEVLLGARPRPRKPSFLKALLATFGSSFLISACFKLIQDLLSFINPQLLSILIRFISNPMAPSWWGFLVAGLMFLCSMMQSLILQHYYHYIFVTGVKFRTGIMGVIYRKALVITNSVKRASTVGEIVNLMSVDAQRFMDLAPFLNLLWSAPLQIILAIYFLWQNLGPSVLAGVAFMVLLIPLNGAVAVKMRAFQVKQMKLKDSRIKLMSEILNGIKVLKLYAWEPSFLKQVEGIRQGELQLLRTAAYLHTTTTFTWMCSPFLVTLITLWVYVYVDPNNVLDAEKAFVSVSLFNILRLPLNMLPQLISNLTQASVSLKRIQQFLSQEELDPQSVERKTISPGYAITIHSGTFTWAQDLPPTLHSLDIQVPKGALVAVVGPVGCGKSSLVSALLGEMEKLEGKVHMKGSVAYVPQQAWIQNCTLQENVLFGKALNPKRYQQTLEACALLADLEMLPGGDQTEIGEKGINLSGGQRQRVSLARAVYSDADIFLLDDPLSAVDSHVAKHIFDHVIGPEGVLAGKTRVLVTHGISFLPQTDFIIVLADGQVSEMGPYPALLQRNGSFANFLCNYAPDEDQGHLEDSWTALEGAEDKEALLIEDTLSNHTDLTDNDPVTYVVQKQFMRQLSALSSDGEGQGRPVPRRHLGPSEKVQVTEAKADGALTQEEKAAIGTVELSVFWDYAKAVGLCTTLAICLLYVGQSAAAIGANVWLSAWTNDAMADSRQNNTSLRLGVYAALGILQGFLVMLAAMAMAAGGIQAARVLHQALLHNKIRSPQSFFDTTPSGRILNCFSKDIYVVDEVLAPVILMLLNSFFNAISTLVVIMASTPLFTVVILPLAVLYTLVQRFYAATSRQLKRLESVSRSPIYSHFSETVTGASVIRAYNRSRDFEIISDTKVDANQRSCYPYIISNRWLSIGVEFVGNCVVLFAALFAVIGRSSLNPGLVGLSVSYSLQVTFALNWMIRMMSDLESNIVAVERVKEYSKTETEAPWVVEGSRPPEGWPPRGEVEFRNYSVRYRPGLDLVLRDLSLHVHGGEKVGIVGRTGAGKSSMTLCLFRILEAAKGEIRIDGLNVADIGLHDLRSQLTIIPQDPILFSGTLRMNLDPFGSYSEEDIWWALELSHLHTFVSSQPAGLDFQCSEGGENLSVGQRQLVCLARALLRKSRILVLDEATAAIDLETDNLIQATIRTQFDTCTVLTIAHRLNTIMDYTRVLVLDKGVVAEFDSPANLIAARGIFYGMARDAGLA
test_description: Inhibition of human MRP3 overexpressed in Sf9 insect cell membrane vesicles assessed as uptake of [3H]-estradiol-17beta-D-glucuronide in presence of ATP and GSH measured after 10 mins by membrane vesicle transport assay
pIC50: −log10 of the molar value.
The entries below are paired with their reported pIC50.

Sample answers from the record:
{"compound": "C(=C\\c1ccccc1)/CN1CCN(C(c2ccccc2)c2ccccc2)CC1", "experimental_value": "< 3.88"}
{"compound": "C[C@@H]1CC[C@H]2[C@@H](C)C(=O)O[C@@H]3O[C@@]4(C)CC[C@@H]1[C@]32OO4", "experimental_value": "< 3.88"}
{"compound": "CC(C)(C)NCC(O)COc1cccc2c1CC(O)C(O)C2 (stereo unspecified)", "experimental_value": "< 3.88"}
{"compound": "CC(C)/N=c1\\cc2n(-c3ccc(Cl)cc3)c3ccccc3nc-2cc1Nc1ccc(Cl)cc1", "experimental_value": 4.68}
{"compound": "CCCCCCCCCC(=O)N[C@@H](Cc1c[nH]c2ccccc12)C(=O)N[C@H](CC(N)=O)C(=O)N[C@@H](CC(=O)O)C(=O)N[C@@H]1C(=O)NCC(=O)N[C@@H](CCCN)C(=O)N[C@@H](CC(=O)O)C(=O)N[C@H](C)C(=O)N[C@@H](CC(=O)O)C(=O)NCC(=O)N[C@H](CO)C(=O)N[C@@H]([C@H](C)CC(=O)O)C(=O)N[C@@H](CC(=O)c2ccccc2N)C(=O)O[C@@H]1C", "experimental_value": "< 3.88"}

Q: Reported pIC50, compound CCOC(=O)C1=C[C@@H](OC(CC)CC)[C@H](NC(C)=O)[C@@H](N)C1 [OSELTAMIVIR PHOSPHATE] : ____
Ans: < 3.88

---

tested_target: ATP-binding cassette sub-family C member 4 (Homo sapiens, UniProt O15439)
Sequence (O15439 whole entry): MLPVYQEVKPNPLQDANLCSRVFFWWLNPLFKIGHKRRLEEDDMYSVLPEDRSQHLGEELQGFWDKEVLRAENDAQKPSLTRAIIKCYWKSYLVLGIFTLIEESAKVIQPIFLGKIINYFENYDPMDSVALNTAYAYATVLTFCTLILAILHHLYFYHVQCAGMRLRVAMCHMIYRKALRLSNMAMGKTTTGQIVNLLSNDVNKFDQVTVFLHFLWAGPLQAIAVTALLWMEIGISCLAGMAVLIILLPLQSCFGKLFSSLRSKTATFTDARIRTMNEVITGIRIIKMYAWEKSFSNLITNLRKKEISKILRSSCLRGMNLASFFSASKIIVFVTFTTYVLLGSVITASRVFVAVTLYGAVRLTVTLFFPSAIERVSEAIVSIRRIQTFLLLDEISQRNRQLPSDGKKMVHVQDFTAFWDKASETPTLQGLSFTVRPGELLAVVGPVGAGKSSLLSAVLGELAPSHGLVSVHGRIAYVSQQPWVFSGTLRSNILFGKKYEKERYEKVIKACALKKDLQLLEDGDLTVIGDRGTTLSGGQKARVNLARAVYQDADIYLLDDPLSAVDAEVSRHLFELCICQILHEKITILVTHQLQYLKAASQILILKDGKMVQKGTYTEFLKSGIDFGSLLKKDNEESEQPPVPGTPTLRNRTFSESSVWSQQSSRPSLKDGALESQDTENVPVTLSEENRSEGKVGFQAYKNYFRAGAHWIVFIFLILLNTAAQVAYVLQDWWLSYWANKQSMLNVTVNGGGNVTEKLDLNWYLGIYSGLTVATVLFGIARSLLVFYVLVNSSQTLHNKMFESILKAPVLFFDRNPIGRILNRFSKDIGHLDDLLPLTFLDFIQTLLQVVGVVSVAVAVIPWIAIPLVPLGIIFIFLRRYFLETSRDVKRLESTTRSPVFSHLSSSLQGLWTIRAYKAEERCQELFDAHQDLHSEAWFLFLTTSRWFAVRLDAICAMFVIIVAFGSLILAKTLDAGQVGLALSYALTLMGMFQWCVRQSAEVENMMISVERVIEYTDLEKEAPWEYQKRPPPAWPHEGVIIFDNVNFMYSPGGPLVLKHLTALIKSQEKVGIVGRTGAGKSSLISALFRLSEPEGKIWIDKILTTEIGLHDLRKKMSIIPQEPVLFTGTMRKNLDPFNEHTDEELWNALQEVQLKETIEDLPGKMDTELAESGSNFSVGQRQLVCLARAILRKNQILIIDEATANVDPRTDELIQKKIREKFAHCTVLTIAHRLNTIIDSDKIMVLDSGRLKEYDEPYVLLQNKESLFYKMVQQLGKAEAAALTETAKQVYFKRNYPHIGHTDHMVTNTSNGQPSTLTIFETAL
test_description: Inhibition of human MRP4 overexpressed in Sf9 cell membrane vesicles assessed as uptake of [3H]-estradiol-17beta-D-glucuronide in presence of ATP and GSH measured after 20 mins by membrane vesicle transport assay
Type: ADME, cell-based
pIC50: −log10 of the molar value.
readout_kind: pIC50

{"seq_string": "SPIRAMYCIN", "pIC50": "< 3.88"}

Now look at this entry.
Q: Under ATP-binding cassette sub-family C member 4 (Homo sapiens, UniProt O15439): pIC50 value of BIVALIRUDIN ?
Ans: < 3.88

---

test_description: Drug concentration at steady state in patient with chronic phase CML at 70 to 90 mg, po BID after 12 hrs
Type: ADME, organism-based
condition_context: human, in vivo, read-out: Css
readout_kind: concentration at 12 h (µM)
The reply should contain only the number, in µM.

Q: Reported concentration at 12 h, molecule Cc1nc(Nc2ncc(C(=O)Nc3c(C)cccc3Cl)s2)cc(N2CCN(CCO)CC2)n1.O : ____
Ans: 0.052

---

tested_target: ATP-binding cassette sub-family C member 4 (Homo sapiens)
test_description: Inhibition of human MRP4 overexpressed in Sf9 cell membrane vesicles assessed as uptake of [3H]-estradiol-17beta-D-glucuronide in presence of ATP and GSH measured after 20 mins by membrane vesicle transport assay
Where a name gives a salt, the structure may show the parent alone.
The entries below are paired with their reported IC50.

Sample answers from the record:
{"compound": "CN(C)CCc1c[nH]c2ccc(C[C@H]3COC(=O)N3)cc12", "IC50": "> 133 µM"}
{"compound": "C[C@H]1c2cccc(O)c2C(=O)C2=C(O)[C@]3(O)C(=O)C(C(N)=O)=C(O)[C@@H](N(C)C)[C@@H]3[C@@H](O)[C@@H]21 [DOXYCYCLINE HYDROCHLORIDE]", "IC50": "> 133 µM"}

Q: Under ATP-binding cassette sub-family C member 4 (Homo sapiens): IC50 value of CC(C)(C)NC(=O)[C@@H]1CN(Cc2cccnc2)CCN1C[C@@H](O)C[C@@H](Cc1ccccc1)C(=O)N[C@H]1c2ccccc2C[C@H]1O.O ?
Ans: > 133 µM

Q: Under ATP-binding cassette sub-family C member 4 (Homo sapiens): IC50 value of NS(=O)(=O)c1cc2c(cc1Cl)NCNS2(=O)=O [HYDROCHLOROTHIAZIDE] ?
Ans: > 133 µM

Q: Under ATP-binding cassette sub-family C member 4 (Homo sapiens): IC50 value of Cc1ncc([N+](=O)[O-])n1CC(O)CCl (configuration not stated) ?
Ans: > 133 µM

Q: Under ATP-binding cassette sub-family C member 4 (Homo sapiens): IC50 value of Cc1c(C(=O)NN2CCCCC2)nn(-c2ccc(Cl)cc2Cl)c1-c1ccc(Cl)cc1 ?
Ans: > 133 µM

Q: Under ATP-binding cassette sub-family C member 4 (Homo sapiens): IC50 value of N#C[C@@H]1C[C@@H]2C[C@@H]2N1C(=O)[C@@H](N)C12CC3CC(CC(O)(C3)C1)C2 [SAXAGLIPTIN HYDROCHLORIDE] ?
Ans: > 133 µM

Q: Under ATP-binding cassette sub-family C member 4 (Homo sapiens): IC50 value of CCC(C)n1ncn(-c2ccc(N3CCN(c4ccc(OCC5COC(Cn6cncn6)(c6ccc(Cl)cc6Cl)O5)cc4)CC3)cc2)c1=O (configuration not stated) ?
Ans: > 133 µM

Q: Under ATP-binding cassette sub-family C member 4 (Homo sapiens): IC50 value of CCN1CCC[C@H]1CNC(=O)c1c(OC)ccc(Br)c1OC [REMOXIPRIDE] ?
Ans: > 133 µM
